Tested on: T47D
experiment: NCI tumour cell line growth inhibition, 48 h
Where a name gives a salt, the structure may show the parent alone. Calls of active or inactive are those of the source. No stated cut-off is given here; in the data, active = GI50 up to about 1.1 µM and inactive = higher.
One label from this list, please: active, inactive

[in] Could you kindly confirm the outcome this assay logged for COc1cccc2c(Nc3ccc(S(=O)(=O)N=C(N)N)cc3)c3ccc([N+](=O)[O-])cc3nc12 ?
[out] inactive

[in] What classification did COc1ccc(/N=C(/C[S+]([O-])c2ccc(C)cc2)C(F)(F)F)cc1 (centres undefined) end up with in this test?
[out] inactive

[in] Tell me the assay call for CCOC(=O)N1C=CC(=C2C(=C3C=CN(C(=O)OCC)C=C3)C(=C3C=CN(C(=O)OCC)C=C3)C2=C2C=CN(C(=O)OCC)C=C2)C=C1 please.
[out] inactive

[in] GET /call?item= CC(CCC(=O)O)(c1cc(Br)c(O)c(Br)c1)c1cc(Br)c(O)c(Br)c1 returns the recorded outcome of this test.
[out] inactive

[in] Give the logged outcome of this assay for the following molecule: Cc1ccc(S(=O)(=O)OC2C(C3COC(C)(C)O3)OC3OC(C)(C)OC32)cc1 (centres undefined)
[out] inactive

[in] Just curious, what result did CCc1ccc2c(c1)N(CC(C)CN(C)C)c1ccccc1S2 (centres undefined) [ETYMEMAZINE HYDROCHLORIDE] get here?
[out] inactive

[in] State the result this test recorded for CC(O)CNC(=O)Nc1c(C(F)(F)F)cc(-c2ccccc2)[nH]c1=O (centres undefined) .
[out] inactive

[in] Per the assay record, what outcome was assigned to c1cc2c(cc1NC1=NCCO1)CCC2 ?
[out] inactive

[in] Look up the recorded call for CCN(CC)CCCNc1ccc([N+](=O)[O-])c2nc3ccccc3c(N)c12 in this test.
[out] active

[in] Entry Oc1cccc2cc(Br)cnc12 : call = ?
[out] inactive

[in] Please state the recorded outcome for this molecule: N#Cc1cc2c(n(C3OC(CO)C(O)C(O)C3O)c1=S)CCCCCC2 (centres undefined)
[out] inactive

[in] Can you look up the reported call for COc1ccc(-c2cc(C(O)C3CCCCN3)c3ccccc3n2)cc1 (centres undefined) for me?
[out] inactive

[in] Which outcome was entered for the molecule COc1ccc(C2C3=C(COC3=O)Oc3cc4c(cc32)OCO4)cc1OC (centres undefined) in this test?
[out] inactive

[in] Dear colleague, could you share the recorded outcome for CC1(C)CNC(=O)C2(/C=N/C(C)(C)CNC(=O)C3(/C=N/1)CCCO3)CCCO2 (centres undefined) when you have a moment?
[out] inactive

[in] For O=C1CCCCC/C1=C\c1ccccc1 , what call appears in the results of this test?
[out] inactive

[in] // param item: CN(CCC(=O)N1CC(CCl)c2ccc([N+](=O)[O-])cc21)CCC(=O)N1CC(CCl)c2ccc([N+](=O)[O-])cc21 (centres undefined) ; yields the recorded call
[out] inactive

[in] Field: outcome | Entry: CN1CCN(c2ncc3c(n2)sc2c(=O)n(-c4ccccc4)cnc23)CC1
[out] inactive

[in] Record request — test call for Sc1nn2c(COc3cc(Cl)c(OCc4nnc5sc(S)nn45)cc3Cl)nnc2s1
[out] inactive

[in] Recorded test outcome, item CC(=O)/C(C)=N/NC(=O)c1ccccc1O
[out] inactive

[in] Record request — test call for CCOP(=O)(OCC)/C(C#N)=C/c1cccn1Cc1ccccc1
[out] inactive

[in] Record lookup: outcome of this test for N#CSCC1COc2ccccc2O1 (centres undefined) ?
[out] inactive

[in] # lookup: test call for COc1ccc2c3c(c(=O)n(C)c2c1OC)C=CC(C)(C)O3
[out] inactive

[in] Record lookup: outcome of this test for COc1cccc2c1C(CO)N1C(C#N)C3CC(C(=O)O)C(C1C2)N3C (centres undefined) ?
[out] active

[in] GET /call?item= CC(C)(C)[Si](C)(C)OCC1CCC(n2cnc3c(N)ncnc32)O1 (centres undefined) returns the recorded outcome of this test.
[out] inactive

[in] Called result for CC1(C)CCCC2OC2CCC(C)(C)C1=O (centres undefined)
[out] inactive

[in] Test call for this molecule, please: Cc1nnc2sc(N/N=C/c3ccccc3)nn12
[out] inactive

[in] For CC(C)(C)OC(=O)NCCCCCCC(=O)Cc1ccccc1 , which call appears in the assay record?
[out] inactive

[in] Record request — test call for N=C(N)N/N=C\c1c(-c2cccc([N+](=O)[O-])c2)nc2sccn12
[out] inactive

[in] Recorded test outcome, item c1ccc2sc(SSSc3nc4ccccc4s3)nc2c1
[out] inactive

[in] Check the results log: what was the call for CCOP1(=O)C=C(Sc2ccc([N+](=O)[O-])cc2[N+](=O)[O-])C(C)(C)O1 (centres undefined) ?
[out] inactive

[in] Call for entry Cc1nc2c(Cl)cc(Cl)cc2c(Cl)c1CCCl :
[out] inactive

[in] Field: outcome | Entry: COc1ccc(N(C(=O)NCCO)c2ccccc2)cc1
[out] inactive

[in] Recorded test outcome, item CC1(C)CC(=O)c2c(nc3ccc4ccccc4c3c2-c2ccc(NC(=O)CCC(=O)Nc3ccc(-c4c5c(nc6ccc7ccccc7c46)CC(C)(C)CC5=O)cc3)cc2)C1
[out] inactive

[in] Recorded test outcome, item Cn1c2ccccc2c2ccc3c(c21)C(=O)C=CC3=O
[out] inactive
